Tested on: U2OS
Assay: Incucyte cell viability with U2OS; note: filed as whole numbers so only -1 and 0 and 1 occur
Type: toxicity, cell-based
Settings: human, 24 h, 10 µM, compound concentration 10 uM, replicate number 2, timepoint 24 hours
ASSAY ENDPOINT: Growth Rate

{"columns": ["COMPOUND", "ASSAY SYSTEM", "ASSAY ENDPOINT", "READING"],
 "data": [
  ["N#CC1(c2ccccn2)CCN(Cc2cc(C(=O)O)c(=O)n3ccccc23)CC1", "U2OS", "Growth Rate", 1],
  ["CN1C(=O)[C@@H](NC(=O)c2cc3ccccc3[nH]2)N=C(c2ccccc2)c2ccccc21 [DEVAZEPIDE]", "U2OS", "Growth Rate", 0],
  ["C[C@H](NC(=O)Nc1cc2[nH]ncc2c(CO)n1)c1ccccn1", "U2OS", "Growth Rate", 1],
  ["O=C(NNS(=O)(=O)c1ccccc1)c1cc(-c2ccnnc2)ccc1F", "U2OS", "Growth Rate", 0],
  ["NS(=O)(=O)c1cc(NC(=O)Cc2ccccc2)ccc1Oc1cccc(Cl)c1", "U2OS", "Growth Rate", 1],
  ["CN1CCN(c2ccc(-c3cccc(CN4CCOCC4)c3)cc2NC(=O)c2c[nH]c(=O)cc2C(F)(F)F)CC1", "U2OS", "Growth Rate", 0]
]}

====

Overview of recorded Population Mitochondria Different-Phenotype (%) for various compounds
System: HEK-293T
Assay: Multiplex assay against HEK293T
Format: toxicity, cell-based
Conditions: human, 12 h, 1 µM, compound concentration 1 uM, replicate 1
ASSAY ENDPOINT: Population Mitochondria Different-Phenotype (%)

{"columns": ["SMILES STRING", "ASSAY SYSTEM", "READING"],
 "data": [
  ["Cc1c(Nc2ccc(S(=O)(=O)N3CCN(C)CC3)cc2F)nc2ccc(Nc3cnn(C4CC4)c3)cn2c1=O", "HEK-293T", 11],
  ["N#Cc1cccc(C(=O)Nc2cc(-c3ccccc3)nn2-c2ccccc2)c1", "HEK-293T", 85],
  ["CC(C)[C@H](CO)Nc1nc(Nc2cccc(Cl)c2)c2ncn(C(C)C)c2n1", "HEK-293T", 85],
  ["CCCCN(CC)c1nc(C)nc2c1c(C)cn2-c1c(C)cc(C)cc1C.Cl", "HEK-293T", 79],
  ["Cc1c(Nc2ccc(S(=O)(=O)N3CCN(C)CC3)cc2F)nc2ccc(-c3cnn(C4CC4)c3)cn2c1=O", "HEK-293T", 6],
  ["CN(c1cc(C(F)(F)F)nc(OCCC(=O)O)n1)c1cccc2c1CCC2", "HEK-293T", 67],
  ["Cc1c(P(=S)(c2ccccc2)c2ccccc2)n2ccccc2[n+]1C/C=C/c1ccccc1.[Br-]", "HEK-293T", 93]
]}

====

Test system: HEK-293T
Test: Incucyte cell viability with HEK293T; note: filed as whole numbers so only -1 and 0 and 1 occur
Type: toxicity, cell-based
Conditions: human, 24 h, 10 µM, compound concentration 10 uM, replicate number 1, timepoint 24 hours
We begin with a simple list: items and their reported Growth Rate.
ASSAY ENDPOINT: Growth Rate

{"columns": ["COMPOUND", "ASSAY SYSTEM", "READING"],
 "data": [
  ["COc1ccc(CCc2nc3cc(-c4c(C)noc4C)ccc3n2C[C@H](C)N2CCOCC2)cc1Cl", "HEK-293T", 0],
  ["CS(=O)(=O)N1CCCC(NC(=O)[C@H](CCC2CCCCC2)NC(=O)c2ccc(CNC(=O)c3cnc4ccccn34)cc2)C1 (stereo partly drawn)", "HEK-293T", 0],
  ["Cc1cc2c(cc1-c1cc(/C=C/C(=O)O)ccc1O)C(C)(C)CCC2(C)C", "HEK-293T", 1],
  ["C/C(=C/C=C/C(C)=C/C(=O)O)c1cc(C(C)(C)C)cc(C(C)(C)C)c1OCC(F)F", "HEK-293T", 0],
  ["C[C@@H](N)Cc1c[nH]cn1.Cl.Cl", "HEK-293T", 1],
  ["Cl.Cn1c2c(c3ccc(Cl)c(Cl)c31)C(C#N)C1(CCNCC1)NC2=O (stereo not drawn)", "HEK-293T", 0],
  ["CCC(=O)NC1Cc2ccccc2C(c2ccccc2)C1 (stereo not drawn)", "HEK-293T", 0],
  ["COc1ccc2c(c1)O[C@@H](c1ccc(OC)c(OC)c1)C[C@H]2NC(=O)C1(c2ccc3c(c2)OC(F)(F)O3)CC1", "HEK-293T", 0],
  ["COc1ncc(F)cc1CNc1ccc(Cc2c[nH]c3ncc(C)cc23)c(F)n1", "HEK-293T", 1],
  ["Cc1ccc(S(=O)(=O)NC2c3ccccc3Oc3ccccc32)cc1", "HEK-293T", 0],
  ["CC[C@@H]1C(=O)N(C)c2cnc(Nc3ccc(C(=O)NC4CCN(C)CC4)cc3OC)nc2N1C1CCCC1", "HEK-293T", 0],
  ["Cc1cn2cc(CC(=O)N3CCC4(CC3)CN(Cc3ccc(-n5nccn5)cc3Cl)C4)nc2s1", "HEK-293T", 0],
  ["CC(C)NCC(O)COc1cccc2ccccc12.Cl (stereo not drawn) [PROPRANOLOL HYDROCHLORIDE]", "HEK-293T", 0],
  ["CCOC(=O)CCNc1cc(N2CCc3ccccc3CC2)nc(-c2ccccn2)n1", "HEK-293T", 0],
  ["CCOc1ccn(-c2ccc(F)cc2)c(=O)c1C(=O)Nc1ccc(Oc2ccnc(N)c2Cl)c(F)c1", "HEK-293T", 1],
  ["COc1cccc(CNC(=O)c2nc3scc(COCc4ccc(C(=O)O)cc4)c3c(=O)[nH]2)c1 [T-26c]", "HEK-293T", 1],
  ["Cl.NC[C@@H]1O[C@H](C23CC4CC(CC(C4)C2)C3)Cc2c1ccc(O)c2O", "HEK-293T", 0],
  ["CCOP(=O)(OCC)C(=Cc1cc(C(C)(C)C)c(O)c(C(C)(C)C)c1)P(=O)(OCC)OCC", "HEK-293T", 0]
]}

====

Tested on: U2OS
Test: Multiplex assay against U2OS
Format: toxicity, cell-based
Settings: human, 12 h, 10 µM, compound concentration 10 uM, replicate 1
With a cut-off of 50%, any Population Healthy Nuclei (%) strictly below it is called TRUE; any Population Healthy Nuclei (%) meeting it or above is called FALSE.

{"columns": ["COMPOUND", "GROUP"],
 "data": [
  ["c1ccc(-c2oc3ncnc(NC[C@@H]4CCCO4)c3c2-c2ccccc2)cc1", "FALSE"],
  ["CC[C@H](Nc1ncnc2[nH]cnc12)c1nc2cccc(F)c2c(=O)n1-c1ccccc1 [IDELALISIB]", "FALSE"],
  ["CC[C@@H]1C(=O)N(C)c2cnc(Nc3ccc(C(=O)NC4CCN(C)CC4)cc3OC)nc2N1C1CCCC1 [BI-2536]", "FALSE"],
  ["Cc1ccc(S(=O)(=O)NC2c3ccccc3Oc3ccccc32)cc1", "TRUE"],
  ["CC(C)c1cc(Nc2nc(N3CCC[C@H](N)C3)ncc2C(N)=O)cc(C(C)C)n1", "TRUE"],
  ["NC(=O)c1ccc2nc(-c3ccc(C4(N)CCC4)cc3)c(-c3ccccc3)n2n1 [BAY-1125976]", "FALSE"]
]}

====

# Population Hoechst High Intensity Objects (%) per record follows
Tested on: Fibroblast
Assay: Multiplex assay against human fibroblast
Type: toxicity, cell-based
Details: 48 h, 10 µM, compound concentration 10 uM, replicate 1
ASSAY ENDPOINT: Population Hoechst High Intensity Objects (%)

{"columns": ["COMPOUND", "MEASUREMENT UNIT", "READING"],
 "data": [
  ["c1ccc(-c2oc3ncnc(NC[C@@H]4CCCO4)c3c2-c2ccccc2)cc1", "%", 14],
  ["C=CC(=O)Nc1cc(-n2c(=O)ccc3cnc4ccc(-c5ccc(NS(C)(=O)=O)cc5)cc4c32)ccc1C", "%", 18],
  ["CN1CCN(Cc2ccc(-c3cnc4[nH]cc(-c5ccc6[nH]ccc6c5)c4c3)cc2)CC1", "%", 28],
  ["CC(C)[C@H](CO)Nc1nc(Nc2cccc(Cl)c2)c2ncn(C(C)C)c2n1 [PURVALANOLA]", "%", 17],
  ["CC(C)c1cc(Nc2nc(N3CCC[C@H](N)C3)ncc2C(N)=O)cc(C(C)C)n1", "%", 32],
  ["CC(Cc1ccc(O)c(O)c1)C(C)Cc1ccc(O)c(O)c1 (centres undefined) [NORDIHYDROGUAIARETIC ACID]", "%", 15],
  ["Cc1c(Nc2ccc(S(=O)(=O)N3CCN(C)CC3)cc2F)nc2ccc(-c3cnn(C4CC4)c3)cn2c1=O", "%", 43],
  ["N#Cc1cccc(C(=O)Nc2cc(-c3ccccc3)nn2-c2ccccc2)c1", "%", 12],
  ["Cl.NC[C@@H]1O[C@H](C23CC4CC(CC(C4)C2)C3)Cc2c1ccc(O)c2O", "%", 24],
  ["CN(c1cc(C(F)(F)F)nc(OCCC(=O)O)n1)c1cccc2c1CCC2", "%", 14],
  ["Cc1ccc(S(=O)(=O)NC2c3ccccc3Oc3ccccc32)cc1", "%", 7],
  ["CCCCCNC(=N)N/N=C/c1c[nH]c2ccc(OC)cc12.O=C(O)/C=C\\C(=O)O [TEGASEROD MALEATE]", "%", 33],
  ["C[C@@H](Oc1cc(-n2cnc3ccc(CN4CCN(C)CC4)cc32)sc1C(N)=O)c1ccccc1C(F)(F)F [GSK-461364]", "%", 45],
  ["CN1C(=O)[C@@H](NC(=O)c2cc3ccccc3[nH]2)N=C(c2ccccc2)c2ccccc21 [DEVAZEPIDE]", "%", 12],
  ["CCCCN(CC)c1nc(C)nc2c1c(C)cn2-c1c(C)cc(C)cc1C.Cl", "%", 20],
  ["CC(/C=C1\\SC(=S)N(CCCC(=O)Nc2ccc(C(=O)O)c(O)c2)C1=O)=C\\c1ccccc1", "%", 55],
  ["CCCc1cc(C)[nH]c(=O)c1CNC(=O)c1cc(-c2ccc(N3CCN(C(C)C)CC3)nc2)cc2c1cnn2C(C)C", "%", 38],
  ["Oc1cccc(-c2nc(N3CCOCC3)c3oc4ncccc4c3n2)c1 [PI-103]", "%", 33],
  ["N#CCNC(=O)c1ccc(-c2ccnc(Nc3ccc(N4CCOCC4)cc3)n2)cc1 [MOMELOTINIB]", "%", 14]
]}

Recorded values, source ChEMBL document CHEMBL4689842.
